Reference source for all entries: paper PMC13070491

Test: CNS penetration: total and unbound drug concentrations in tumor regions, CSF and plasma (LC-MS/MS, equilibrium dialysis)
Conditions: human, CSF, oral, Unbound Ribociclib concentration, Median, 600 mg QD 5 days
Property name: concentration at 5 days (nM)
Respond with the bare value in nM.

Please fill in: concentration at 5 days reported for CN(C)C(=O)c1cc2cnc(Nc3ccc(N4CCNCC4)cn3)nc2n1C1CCCC1 [Ribociclib, ribociclib] = 212

###

Assay: Plasma pharmacokinetic parameters (LC-MS/MS)
Details: human, plasma, oral, 50 mg, AUClast, total everolimus plasma; mean
Property name: AUC(0-t)
Answer format: number, then unit.

Lab note: CO[C@H]1C[C@@H]2CC[C@@H](C)[C@@](O)(O2)C(=O)C(=O)N2CCCC[C@H]2C(=O)O[C@H]([C@H](C)C[C@@H]2CC[C@@H](OCCO)[C@H](OC)C2)CC(=O)[C@H](C)/C=C(\C)[C@@H](O)[C@@H](OC)C(=O)[C@H](C)C[C@H](C)/C=C/C=C/C=C/1C [Everolimus, everolimus] gave AUC(0-t) of 1.59 µM·h

###

Assay: CNS penetration: total and unbound drug concentrations in tumor regions, CSF and plasma (LC-MS/MS, equilibrium dialysis)
Details: human, CSF, oral, Total everolimus, MED, 2.5 mg QD 5 days
Property name: concentration at 5 days (nM)
The response must be a number in nM with no trailing unit.

// CO[C@H]1C[C@@H]2CC[C@@H](C)[C@@](O)(O2)C(=O)C(=O)N2CCCC[C@H]2C(=O)O[C@H]([C@H](C)C[C@@H]2CC[C@@H](OCCO)[C@H](OC)C2)CC(=O)[C@H](C)/C=C(\C)[C@@H](O)[C@@H](OC)C(=O)[C@H](C)C[C@H](C)/C=C/C=C/C=C/1C [Everolimus, everolimus] : concentration at 5 days value = 0.33

###

Test: CNS penetration: total and unbound drug concentrations in tumor regions, CSF and plasma (LC-MS/MS, equilibrium dialysis)
Conditions: human, non-enhancing tumor, oral, Total everolimus, MIN, 60 mg single dose
Property name: concentration at 5 days (nM)
Reply numerically in nM, unit not repeated.

CO[C@H]1C[C@@H]2CC[C@@H](C)[C@@](O)(O2)C(=O)C(=O)N2CCCC[C@H]2C(=O)O[C@H]([C@H](C)C[C@@H]2CC[C@@H](OCCO)[C@H](OC)C2)CC(=O)[C@H](C)/C=C(\C)[C@@H](O)[C@@H](OC)C(=O)[C@H](C)C[C@H](C)/C=C/C=C/C=C/1C yielded concentration at 5 days of 11.3

###

Assay: CNS penetration: total and unbound drug concentrations in tumor regions, CSF and plasma (LC-MS/MS, equilibrium dialysis)
Conditions: human, non-enhancing tumor, oral, Total everolimus, MED, 60 mg single dose
Property name: concentration at 5 days (nM)
# output: bare number, implied unit nM

Record CO[C@H]1C[C@@H]2CC[C@@H](C)[C@@](O)(O2)C(=O)C(=O)N2CCCC[C@H]2C(=O)O[C@H]([C@H](C)C[C@@H]2CC[C@@H](OCCO)[C@H](OC)C2)CC(=O)[C@H](C)/C=C(\C)[C@@H](O)[C@@H](OC)C(=O)[C@H](C)C[C@H](C)/C=C/C=C/C=C/1C . Reported concentration at 5 days: 13.8

###

Assay: Plasma pharmacokinetic parameters (LC-MS/MS)
Conditions: human, plasma, oral, 5 mg, Tmax, total everolimus plasma; mean
Property name: Tmax
Entry format: amount then unit.

Record CO[C@H]1C[C@@H]2CC[C@@H](C)[C@@](O)(O2)C(=O)C(=O)N2CCCC[C@H]2C(=O)O[C@H]([C@H](C)C[C@@H]2CC[C@@H](OCCO)[C@H](OC)C2)CC(=O)[C@H](C)/C=C(\C)[C@@H](O)[C@@H](OC)C(=O)[C@H](C)C[C@H](C)/C=C/C=C/C=C/1C . Reported Tmax: 2.69 h

###

Assay: Plasma pharmacokinetic parameters (LC-MS/MS)
Conditions: human, plasma, oral, 70 mg, Cmax, total everolimus plasma; mean
Property name: Cmax (nM)
Write the answer as a number in nM, unit excluded.

Given item CO[C@H]1C[C@@H]2CC[C@@H](C)[C@@](O)(O2)C(=O)C(=O)N2CCCC[C@H]2C(=O)O[C@H]([C@H](C)C[C@@H]2CC[C@@H](OCCO)[C@H](OC)C2)CC(=O)[C@H](C)/C=C(\C)[C@@H](O)[C@@H](OC)C(=O)[C@H](C)C[C@H](C)/C=C/C=C/C=C/1C , the value recorded as its Cmax is 120

###

Experiment: CNS penetration: total and unbound drug concentrations in tumor regions, CSF and plasma (LC-MS/MS, equilibrium dialysis)
Details: human, enhancing tumor, oral, Total everolimus, MAX, 2.5 mg QD 5 days
Property name: concentration at 5 days (nM)
Your answer should be a plain number; it is taken to be in nM.

The compound listed as CO[C@H]1C[C@@H]2CC[C@@H](C)[C@@](O)(O2)C(=O)C(=O)N2CCCC[C@H]2C(=O)O[C@H]([C@H](C)C[C@@H]2CC[C@@H](OCCO)[C@H](OC)C2)CC(=O)[C@H](C)/C=C(\C)[C@@H](O)[C@@H](OC)C(=O)[C@H](C)C[C@H](C)/C=C/C=C/C=C/1C [Everolimus, everolimus] shows concentration at 5 days equal to 83.4

###

Assay: CNS penetration: total and unbound drug concentrations in tumor regions, CSF and plasma (LC-MS/MS, equilibrium dialysis)
Settings: human, enhancing tumor, oral, Total everolimus, MAX, 10 mg QD 5 days
Property name: concentration at 5 days (µM)
Express it in µM; write the number only.

Documented concentration at 5 days of CO[C@H]1C[C@@H]2CC[C@@H](C)[C@@](O)(O2)C(=O)C(=O)N2CCCC[C@H]2C(=O)O[C@H]([C@H](C)C[C@@H]2CC[C@@H](OCCO)[C@H](OC)C2)CC(=O)[C@H](C)/C=C(\C)[C@@H](O)[C@@H](OC)C(=O)[C@H](C)C[C@H](C)/C=C/C=C/C=C/1C : 0.0613

###

Test: Plasma pharmacokinetic parameters (LC-MS/MS)
Conditions: human, plasma, oral, 600 mg, Total Ribociclib Cmax, Median
Description: Pharmacokinetic evaluation was conducted as previously described[8] using a validated liquid chromatography with tandem mass spectrometry (LC-MS/MS) method.[16] […] CSF samples were intraoperatively collected.
Property name: Cmax (nM)
Form entry: value (nM) — number only.

What the record says about CN(C)C(=O)c1cc2cnc(Nc3ccc(N4CCNCC4)cn3)nc2n1C1CCCC1 : Cmax is 1810

###

Assay: CNS penetration: total and unbound drug concentrations in tumor regions, CSF and plasma (LC-MS/MS, equilibrium dialysis)
Details: human, enhancing tumor and plasma, oral, 50 mg
Property name: Kp
Enter the number alone.

Per the records, this compound ( CO[C@H]1C[C@@H]2CC[C@@H](C)[C@@](O)(O2)C(=O)C(=O)N2CCCC[C@H]2C(=O)O[C@H]([C@H](C)C[C@@H]2CC[C@@H](OCCO)[C@H](OC)C2)CC(=O)[C@H](C)/C=C(\C)[C@@H](O)[C@@H](OC)C(=O)[C@H](C)C[C@H](C)/C=C/C=C/C=C/1C [Everolimus, everolimus] ) has Kp equal to 0.89

###

Assay: Plasma pharmacokinetic parameters (LC-MS/MS)
Settings: human, plasma, oral, 2.5 mg, Tmax, total everolimus plasma; mean
Property name: Tmax (h)
Response body: numeric value in h, unit text excluded.

Value of Tmax reported for the compound CO[C@H]1C[C@@H]2CC[C@@H](C)[C@@](O)(O2)C(=O)C(=O)N2CCCC[C@H]2C(=O)O[C@H]([C@H](C)C[C@@H]2CC[C@@H](OCCO)[C@H](OC)C2)CC(=O)[C@H](C)/C=C(\C)[C@@H](O)[C@@H](OC)C(=O)[C@H](C)C[C@H](C)/C=C/C=C/C=C/1C is 1.86

###

Experiment: Plasma pharmacokinetic parameters (LC-MS/MS)
Conditions: human, plasma, oral, 50 mg, AUClast, total everolimus plasma; median
Property name: AUC(0-t) (µM·h)
Give just the numeric value; µM·h need not be written.

Just so you know, measured AUC(0-t) for CO[C@H]1C[C@@H]2CC[C@@H](C)[C@@](O)(O2)C(=O)C(=O)N2CCCC[C@H]2C(=O)O[C@H]([C@H](C)C[C@@H]2CC[C@@H](OCCO)[C@H](OC)C2)CC(=O)[C@H](C)/C=C(\C)[C@@H](O)[C@@H](OC)C(=O)[C@H](C)C[C@H](C)/C=C/C=C/C=C/1C came out at 1.61

###

Assay: CNS penetration: total and unbound drug concentrations in tumor regions, CSF and plasma (LC-MS/MS, equilibrium dialysis);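 also: drug levels in patient tumor tissue from contrast-enhancing and non-enhancing regions sampled under MRI-guided neuronavigation, with plasma and CSF drawn during surgical resection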
Conditions: human, enhancing tumor and plasma, oral, 70 mg
Property name: Kp
Respond numerically, and do not add a unit to the figure.

# Kp (compound: CO[C@H]1C[C@@H]2CC[C@@H](C)[C@@](O)(O2)C(=O)C(=O)N2CCCC[C@H]2C(=O)O[C@H]([C@H](C)C[C@@H]2CC[C@@H](OCCO)[C@H](OC)C2)CC(=O)[C@H](C)/C=C(\C)[C@@H](O)[C@@H](OC)C(=O)[C@H](C)C[C@H](C)/C=C/C=C/C=C/1C ) is 1.35
